Source listed as PubChem BioAssay (NCI).

Tested on: K-562 leukemia
Experiment: NCI-60 one-dose screen, 48 h (100 = growth as untreated, 0 = no growth, -100 = all killed)
Conditions: 10 µM unless noted
About 83,000 compounds went through this panel and 20% of them were active in at least one assay; those are over-represented in the sample as a whole.
Threshold check on growth: at or above 10% gives 1, strictly below gives -1.

[[record]]
compound = "CC1=C(C)C(=O)C(Nc2cccc(C(F)(F)F)c2)=C(Br)C1=O"
test_target = "K-562 leukemia"
class_label = -1

[[record]]
compound = "CC(Nc1c(C#N)cnc2ccc(-c3cncc(-c4n[nH]c(=O)o4)c3)cc12)c1ccccc1 (configuration not stated)"
test_target = "K-562 leukemia"
class_label = 1

[[record]]
compound = "CCN(CC)c1ccc(/C=N/NC(=O)c2ccc(S(N)(=O)=O)cc2)cc1"
test_target = "K-562 leukemia"
class_label = 1

[[record]]
compound = "O=C(CCCCCCNC(=O)C(O)(O)C(F)(F)F)Nc1ccc(Br)cc1"
test_target = "K-562 leukemia"
class_label = 1

[[record]]
compound = "CC(Nc1ncnc2ccc(-c3cnc(N)nc3)cc12)c1ccccc1 (configuration not stated)"
test_target = "K-562 leukemia"
class_label = 1

[[record]]
compound = "CCOP(=O)(OCC)OC[C@]12CCC(C)(C)CC1C1=CC[C@@H]3[C@@]4(C)CCCNC(C)(C)[C@@H]4CC[C@@]3(C)[C@]1(C)CC2 (some centres not stated)"
test_target = "K-562 leukemia"
class_label = -1

[[record]]
compound = "Cc1ccc2c(n1)C(=O)C(Cl)=C(Nc1ccc(C(C)C)cc1)C2=O"
test_target = "K-562 leukemia"
class_label = -1

[[record]]
compound = "Cc1ccc(NC(=O)Nc2nc3ccc([N+](=O)[O-])cc3s2)cc1"
test_target = "K-562 leukemia"
class_label = 1

[[record]]
compound = "O=C1[C@@H]2Cc3c([nH]c4ccccc34)[C@H](c3ccc(Cl)cc3)N2C(=O)CN1C1CCN(Cc2ccccc2)CC1"
test_target = "K-562 leukemia"
class_label = -1

[[record]]
compound = "Fc1ccc2nc(-c3cnn4cccnc34)sc2c1"
test_target = "K-562 leukemia"
class_label = 1

[[record]]
compound = "CC(=O)C1=C(C)NC(NNc2ccccc2)=NC1c1ccc([N+](=O)[O-])cc1 (configuration not stated)"
test_target = "K-562 leukemia"
class_label = 1

[[record]]
compound = "CN(C)CCNc1ccc2ncc(C#Cc3cncc(C(=O)Nc4ccc(CN5CCN(C)CC5)c(C(F)(F)F)c4)c3)n2n1"
test_target = "K-562 leukemia"
class_label = -1

[[record]]
compound = "CCN(CC)c1ccc(/C=N/NC(=O)c2ccc(NS(C)(=O)=O)cc2)cc1"
test_target = "K-562 leukemia"
class_label = 1

[[record]]
compound = "CCc1cc(OC(=O)N2CCC(N3CCCCC3)CC2)ccc1Nc1cc(-c2ccc(-n3cccn3)cc2)[nH]n1"
test_target = "K-562 leukemia"
class_label = -1

[[record]]
compound = "Cc1ccc(C(=O)CSc2nnc(-c3ccc(-c4ccc(Cl)cc4)nc3C)o2)cc1"
test_target = "K-562 leukemia"
class_label = 1

[[record]]
compound = "CN1CCN(c2ccc(Nc3nc(NCCCNS(=O)(=O)c4ccc(F)cc4)c4sccc4n3)cc2)CC1"
test_target = "K-562 leukemia"
class_label = 1

[[record]]
compound = "O=C1C(SCc2ccccc2)=C(Cl)CN1c1ccc(Cl)cc1"
test_target = "K-562 leukemia"
class_label = 1

